Measured Endpoint: pIC50
# log scale: pIC50 equals minus log10 of the concentration in mol/L

Query :: Print human P-Selectin-IgG-chimera (Homo sapiens) pIC50 for `Cc1oc(-c2ccc(NC(=O)c3cncc(-c4ccc(O)cc4O)c3)cc2)cc1C(=O)O` .
Result :: 3.63

Query :: Print human P-Selectin-IgG-chimera (Homo sapiens) pIC50 for `COc1ccc(CC(=O)Nc2ccc(-c3cc(C(=O)O)c(C)o3)cc2)c(OC)c1` .
Result :: 3.62

Query :: Print human P-Selectin-IgG-chimera (Homo sapiens) pIC50 for `O=C(O)Cc1ccc(-c2ccccc2NC(=O)c2cccc(-c3ccc(O)cc3O)c2)s1` .
Result :: 4.09

Data credit: patent US20090030015A1
